# test: amyloid nucleation score (Sup35N fusion, yeast selection) (log enrichment); library NNK3; higher = more nucleation; inactive = no reads after selection;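 also: zero at mode of non-aggregating sequences after 7 days selection at 30°C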
reported-endpoint: amyloid nucleation score

Consider the worked cases shown below.
>>> result("VFTWILSDSHTSMWFRCQGG")
"inactive"
>>> result("VECNIEIHNISSFPSTEKNQ")
2.41
>>> result("FNWCWPISARAGELNLECWS")
"inactive"
>>> result("CIPCTVTFG")
"inactive"
>>> result("LINKLENLIYSG")
"inactive"
>>> result("VERKNVLFRYHAVGFVLGDV")
"inactive"

### Prompt Could you share which amyloid nucleation score value was measured for WQTMPGVRDGCAECEIYWG ?
### Response inactive

Cited source: the supplement of paper PMC12042874
